- System: Bacillus subtilis
- Method Notes: Antibacterial activity against Bacillus subtilis ATCC 6051 assessed as reduction in bacterial growth measured for 18 to 20 hrs by microbroth dilution method
- Assay type: functional
- Test Settings: time 18-20 hrs
Property Name: MIC (µg/mL)

a: H-RWRLFRRIGAVLRVL-NH2
b: H-KWKLFKKIGAVLRVL-NH2
query: I need your help: which of the pair a , b has higher MIC? I would appreciate it if you answered with the label of your choice.
result: b
(b: 32 µg/mL, a: 16 µg/mL)

a: H-KWKLFKKIGAVLKVL-NH2
b: H-KWKLFRKIGAVLKVL-NH2
query: I need your help: which of the pair a , b has higher MIC? I would appreciate it if you answered with the label of your choice.
result: b

a: H-RWKLFKKIGAVLKVL-NH2
b: H-KWKLFKRIGAVLKVL-NH2
query: I need your help: which of the pair a , b has higher MIC? I would appreciate it if you answered with the label of your choice.
result: b

---

# selectivity ratio at 30 min listing for each entry below
- Method Notes: Selectivity index, ratio of HC50 for hemolytic activity in sheep RBC assessed as 50% hemolysis incubated for 30 mins by microplate reader method to MIC for antibacterial activity against Staphylococcus aureus ATCC 29213 assessed as reduction in bacterial growth measured for 18 to 20 hrs by microbroth dilution method
- Type: toxicity
- Test Settings: sheep red blood cells (erythrocytes), read-out: Selectivity Index
Bridge positions count the residues as written; N and C are the ends. Peptide text beside a SMILES is read from it.

Compound: CC[C@H](C)[C@H](NC(=O)[C@H](CCCN)NC(=O)[C@H](CCCN)NC(=O)[C@H](Cc1ccccc1)NC(=O)[C@H](CC(C)C)NC(=O)[C@H](CCCN)NC(=O)[C@H](Cc1c[nH]c2ccccc12)NC(=O)[C@@H](N)CCCN)C(=O)NCC(=O)N[C@@H](C)C(=O)N[C@H](C(=O)N[C@@H](CC(C)C)C(=O)N[C@@H](CCCN)C(=O)N[C@H](C(=O)N[C@@H](CC(C)C)C(N)=O)C(C)C)C(C)C
Result: > 125

Here is the next item to consider.
query: Give me measured selectivity ratio at 30 min, please, for this compound: CC[C@H](C)[C@@H]1NC(=O)[C@H](CCCCN)NC(=O)[C@H](CCCCN)NC(=O)[C@H](Cc2ccccc2)NC(=O)[C@H](CC(C)C)NC(=O)[C@H](CCCCN)NC(=O)[C@H](Cc2c[nH]c3ccccc23)NC(=O)[C@H](CCCCN)NC(=O)[C@@H](N)CSSC[C@@H](C(N)=O)NC(=O)[C@H](CC(C)C)NC(=O)[C@H](C(C)C)NC(=O)[C@H](CCCCN)NC(=O)[C@H](CC(C)C)NC(=O)[C@H](C(C)C)NC(=O)[C@H](C)NC(=O)CNC1=O (H-CKWKLFKKIGAVLKVLC-NH2; disulfide 1-17)
result: > 250

---

- Experimental System: Trypsin (Homo sapiens, UniProt P07477+P07478+P35030)
- Method Notes: Stability of compound assessed as trypsin (unknown origin) mediated compound degradation measured at 4.5 hrs by LCMS analysis
- Type: ADME, protein assay
- Test Settings: read-out: Drug degradation
Property Name: metabolised at 4.5 h (%)
Please respond with the number in % and leave the unit unwritten.

query: Give me measured metabolised at 4.5 h, please, for this molecule: `CC[C@H](C)[C@H](NC(=O)[C@H](CCCN)NC(=O)[C@H](CCCN)NC(=O)[C@H](Cc1ccccc1)NC(=O)[C@H](CC(C)C)NC(=O)[C@H](CCCN)NC(=O)[C@H](Cc1c[nH]c2ccccc12)NC(=O)[C@@H](N)CCCN)C(=O)NCC(=O)N[C@@H](C)C(=O)N[C@H](C(=O)N[C@@H](CC(C)C)C(=O)N[C@@H](CCCN)C(=O)N[C@H](C(=O)N[C@@H](CC(C)C)C(N)=O)C(C)C)C(C)C`
result: 58

---

- Method Notes: Selectivity index, ratio of HC50 for hemolytic activity in sheep RBC assessed as 50% hemolysis incubated for 30 mins by microplate reader method to MIC for antibacterial activity against Pseudomonas aeruginosa ATCC 27853 assessed as reduction in bacterial growth measured for 18 to 20 hrs by microbroth dilution method
- Type: toxicity
- Test Settings: sheep red blood cells (erythrocytes), read-out: Selectivity Index
Property Name: selectivity ratio at 30 min
Just the number.

Substance: H-RWKLFKKIGAVLKVL-NH2
Property Name: selectivity ratio at 30 min
Result Number: 56
--
Substance: H-KWKLFRKIGAVLKVL-NH2
Property Name: selectivity ratio at 30 min
Result Number: 117
--
Substance: H-RWRLFRRIGAVLRVL-NH2
Property Name: selectivity ratio at 30 min
Result Number: 58

query: Give me measured selectivity ratio at 30 min, please, for this substance: `H-KWKLFKKIGAVLRVL-NH2`
result: 35

query: Give me measured selectivity ratio at 30 min, please, for this substance: `H-KWRLFKKIGAVLKVL-NH2`
result: 94

query: Give me measured selectivity ratio at 30 min, please, for this substance: `H-KWKLFKKIGAVLKVL-NH2`
result: 86

---

- Method Notes: Selectivity index, ratio of HC50 for hemolytic activity in sheep RBC assessed as 50% hemolysis incubated for 30 mins by microplate reader method to MIC for antibacterial activity against Staphylococcus aureus ATCC 29213 assessed as reduction in bacterial growth measured for 18 to 20 hrs by microbroth dilution method
- Format: toxicity
- Test Settings: sheep red blood cells (erythrocytes), read-out: Selectivity Index
# selectivity ratio at 30 min listing for each entry below
Just the number.

Substance: H-KWKLFKKIGAVLRVL-NH2
selectivity ratio at 30 min: 70
--
Substance: H-KWKLFKKIGAVLKVL-NH2
selectivity ratio at 30 min: 173
--
Substance: H-KWKLFRKIGAVLKVL-NH2
selectivity ratio at 30 min: 234
--
Substance: H-KWRLFKKIGAVLKVL-NH2
selectivity ratio at 30 min: 188
--
Substance: H-RWKLFKKIGAVLKVL-NH2
selectivity ratio at 30 min: 113

Here is the next item to consider.
query: Give me measured selectivity ratio at 30 min, please, for this substance: `H-RWRLFRRIGAVLRVL-NH2`
result: 29

---

- Method Notes: Hemolytic activity in sheep RBC assessed as hemolysis incubated for 30 mins by microplate reader method
- Type: toxicity, cell-based, Ovis aries, Erythrocyte
- Test Settings: sheep red blood cells (erythrocytes), read-out: Activity
Bridge positions count the residues as written; N and C are the ends. Peptide text beside a SMILES is read from it.
Property Name: hemolysis at 0.5 h (%)
Please respond with the number in % and leave the unit unwritten.

Molecule: CC[C@H](C)[C@H](NC(=O)[C@H](CCCN)NC(=O)[C@H](CCCN)NC(=O)[C@H](Cc1ccccc1)NC(=O)[C@H](CC(C)C)NC(=O)[C@H](CCCN)NC(=O)[C@H](Cc1c[nH]c2ccccc12)NC(=O)[C@@H](N)CCCN)C(=O)NCC(=O)N[C@@H](C)C(=O)N[C@H](C(=O)N[C@@H](CC(C)C)C(=O)N[C@@H](CCCN)C(=O)N[C@H](C(=O)N[C@@H](CC(C)C)C(N)=O)C(C)C)C(C)C
Unit Symbol: %
Result Number: 10

Here is the next item to consider.
query: Give me measured hemolysis at 0.5 h, please, for this molecule: CC[C@H](C)[C@@H]1NC(=O)[C@H](CCCCN)NC(=O)[C@H](CCCCN)NC(=O)[C@H](Cc2ccccc2)NC(=O)[C@H](CC(C)C)NC(=O)[C@H](CCCCN)NC(=O)[C@H](Cc2c[nH]c3ccccc23)NC(=O)[C@H](CCCCN)NC(=O)[C@@H](N)CSSC[C@@H](C(N)=O)NC(=O)[C@H](CC(C)C)NC(=O)[C@H](C(C)C)NC(=O)[C@H](CCCCN)NC(=O)[C@H](CC(C)C)NC(=O)[C@H](C(C)C)NC(=O)[C@H](C)NC(=O)CNC1=O (H-CKWKLFKKIGAVLKVLC-NH2; disulfide 1-17)
result: 10
